species: Rattus norvegicus; assay: animal or person; format: functional; details: po
measurement_name: inhibition in vivo at 30 mg/kg
# number then unit; no other words

Please supply inhibition in vivo at 30 mg/kg for each of the following items, keeping them in order.
1. CS(=O)(=O)c1ccc(C2=C(c3ccc(F)cc3)CC3(CCC3)C2)cc1
2. NS(=O)(=O)c1ccc(C2=C(c3ccc(F)cc3)CC3(CC3)C2)cc1
3. CS(=O)(=O)c1ccc(C2=C(c3ccc(F)cc3)CC3(CC3)C2)cc1
4. CS(=O)(=O)Nc1ccc([N+](=O)[O-])cc1OC1CCCCC1 [NS-398]
5. NS(=O)(=O)c1ccc(C2=C(c3ccc(F)cc3)CC3(CCC3)C2)cc1
6. COc1ccc2c(c1)c(CC(=O)O)c(C)n2C(=O)c1ccc(Cl)cc1 [INDOMETHACIN]

["23%", "60%", "38%", "60%", "37%", "66%"]
